assay: qHTS assay to identify small molecule antagonists of the estrogen related receptor (ERR) signaling pathway from Tox21 library - cell viability counter screen (AID 1224834); conditions: ERR reporter cells viability, CellTiter-Fluor, 17.5 h; series mostly up to 92.4 µM; further: nearly all actives have a fitted effect of over 30% in size
Records with an inconclusive call do not appear. Active and inactive are the calls of the source. The call rests on the fitted dose curve; in most records, active means well fitted cell-killing curve with a large enough effect in the repeat runs; inconclusive means weak or mixed curves; inactive means flat fitted curve, though single readings scatter.
Choose one outcome from this list and give only that: active, inactive

For orientation, consider the following solved cases.
compound=Clc1ccc(C(Cl)(Cl)Cl)cc1Cl category=inactive
compound=C=CC(=C)C category=inactive
compound=Nc1ccc(N=Nc2ccccc2)cc1 category=active
compound=CCOC(=O)CCN(SN(C)C(=O)Oc1cccc2c1OC(C)(C)C2)C(C)C category=inactive
compound=CO/N=C(/C1=NOCCO1)c1ccccc1Oc1ncnc(Oc2ccccc2Cl)c1F category=active

In the following, a different compound is considered.
Can you look up the reported call for CCCCC(CC)COC(=O)OOC(C)(C)C (centres undefined) for me?
inactive

These measurements were taken from PubChem BioAssay (Tox21).
